Hi there, I'd appreciate the recorded composite z-score for every entry that follows.
Test system: Chordin-like protein 2 (CHRDL2)
PROTOCOL_NOTES: CHRDL2 small-molecule binders, primary screen, biochemical, small-molecule microarray, 635 nm fluorescence (AID 1126);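 further: printed compound slides probed with Chrdl2 protein at 4 µg/mL for 1 h at 4 C; score merges 667 nm emission intensity with signal to noise over three replicate slides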
CONDITION_CONTEXT: small-molecule microarray binding, fluorescence 635 nm; higher = more signal
Enter the number alone.

composite z-score reading for "C[C@]1(C(=O)O)c2ccccc2C(=O)N(Cc2ccc(OC(F)(F)F)cc2)[C@H]1c1ccc(CO)cc1" : -0.758

composite z-score reading for "COc1ccc([Si](C)(C)[C@H]2[C@H](CC(=O)N3CCC[C@H]3CO)O[C@@]3(C(=O)N(Cc4ccc(N5CCC5=O)cc4)c4ccccc43)[C@@H]2C)cc1" : 1.25

composite z-score reading for "CN(C)C(=O)[C@@]1(CCC(=O)OC(C)(C)C)N=C(c2ccc(OCCCO)cc2)O[C@H]1c1ccccc1CN=[N+]=[N-]" : -0.409

composite z-score reading for Cc1ccccc1C(O)C1C=CC2C(=O)N(c3ccccc3)C(=O)C2N1Nc1ccc([N+](=O)[O-])cc1 (stereo not drawn) : -0.051

composite z-score reading for "Nc1cc(Br)ccc1C(=O)O" : -0.079

composite z-score reading for "COCCOC(=O)N1C(=O)[C@@]2(c3cc(C#CCCO)ccc31)[C@H](C(N)=O)[C@H]1C(=O)O[C@H](c3ccccc3)[C@H](c3ccccc3)N1[C@@H]2c1ccc(OCCO)cc1" : 0.618

composite z-score reading for C=CCC(OC(C)=O)[C@@H]1[C@@H](N(Cc2ccc(-c3cccc(C(F)(F)F)c3)o2)C(=O)Cc2ccc(OC)cc2)c2cc(OCCCO)ccc2N1C(=O)Cc1ccc2ccccc2c1 (stereo partly drawn) : -0.0929

composite z-score reading for "Cc1cccc([C@H]2C[C@H]3C(Br)=C[C@@H]2C(=O)[C@]32CO2)c1" : 0.563
